Test system: Staphylococcus aureus
assay_remarks: Antibacterial activity against Staphylococcus aureus by two-fold dilution method
Type: functional
value_kind: -logMIC

These solved cases illustrate the format of a correct answer.
COC(=O)CCC[C@@H]1[C@H]2CCCN3CCC[C@@H](CN1C(=O)c1cc4ccc(Cl)cc4n1Cc1cc(Cl)ccc1F)[C@@H]23 ... 1.013
COC(=O)CCC[C@@H]1[C@H]2CCCN3CCC[C@@H](CN1C(=O)c1cc4ccc(Cl)cc4n1Cc1ccccc1[N+](=O)[O-])[C@@H]23 ... 0.876
COC(=O)CCC[C@@H]1[C@H]2CCCN3CCC[C@@H](CN1C(=O)c1cc4ccc(Cl)cc4n1Cc1cccc4ccccc14)[C@@H]23 ... 0.519

The compound listed as COC(=O)CCC[C@@H]1[C@H]2CCCN3CCC[C@@H](CN1C(=O)c1cc4ccc(Cl)cc4n1Cc1cccc(C)c1)[C@@H]23 has a reported -logMIC of 0.567

----------
System: Candida albicans
assay_remarks: […] activity against Candida albicans by two-fold dilution method
Format: functional
value_kind: -logMIC
Answers are plain numbers.

These solved cases illustrate the format of a correct answer.
COC(=O)CCC[C@@H]1[C@H]2CCCN3CCC[C@@H](CN1C(=O)c1cc4ccc(Cl)cc4n1Cc1ccc(-c4ccccc4)cc1)[C@@H]23 ... -1.37
COC(=O)CCC[C@@H]1[C@H]2CCCN3CCC[C@@H](CN1C(=O)c1cc4ccc(Cl)cc4n1Cc1ccc(Cl)cc1)[C@@H]23 ... -1.13
COC(=O)CCC[C@@H]1[C@H]2CCCN3CCC[C@@H](CN1C(=O)c1cc4ccc(Cl)cc4n1Cc1cc(Cl)ccc1F)[C@@H]23 ... -0.739

Now take the following compound into account.
The compound listed as COC(=O)CCC[C@@H]1[C@H]2CCCN3CCC[C@@H](CN1C(=O)c1cc4ccc(Cl)cc4n1Cc1ccc(C(F)(F)F)cc1)[C@@H]23 has a reported -logMIC of -0.448

----------
Test system: Candida albicans
assay_remarks: […] activity against Candida albicans by two-fold dilution method
Assay type: functional
condition_info: Candida albicans
value_kind: MIC (µg/mL)
Give bare numbers, in µg/mL.

Please report MIC for every entry that follows.
1. COC(=O)CCC[C@@H]1[C@H]2CCCN3CCC[C@@H](CN1C(=O)c1cc4ccc(Cl)cc4n1Cc1ccc(C(F)(F)F)cc1)[C@@H]23
2. COC(=O)CCC[C@@H]1[C@H]2CCCN3CCC[C@@H](CN1C(=O)c1cc4ccc(Cl)cc4n1Cc1cccc(C)c1)[C@@H]23
3. COC(=O)CCC[C@@H]1[C@H]2CCCN3CCC[C@@H](CN1C(=O)c1cc4ccc(Cl)cc4n1Cc1ccc([N+](=O)[O-])cc1)[C@@H]23
4. COC(=O)CCC[C@@H]1[C@H]2CCCN3CCC[C@@H](CN1C(=O)c1cc4ccc(Cl)cc4n1Cc1cc(OC)ccc1Br)[C@@H]23
5. COC(=O)CCC[C@@H]1[C@H]2CCCN3CCC[C@@H](CN1C(=O)c1cc4ccc(Cl)cc4n1Cc1cc(Cl)ccc1F)[C@@H]23
6. COC(=O)CCC[C@@H]1[C@H]2CCCN3CCC[C@@H](CN1C(=O)c1cc4ccc(Cl)cc4n1Cc1ccccc1C)[C@@H]23

Marked response:
[2.81, 11.6, 7.01, 9.92, 5.48, 19.6]

Please report MIC for every entry that follows.
1. COC(=O)CCC[C@@H]1[C@H]2CCCN3CCC[C@@H](CN1C(=O)c1cc4ccc(Cl)cc4n1Cc1ccc(C(C)(C)C)cc1)[C@@H]23
2. COC(=O)CCC[C@@H]1[C@H]2CCCN3CCC[C@@H](CN1C(=O)c1cc4ccc(Cl)cc4n1Cc1ccc(Br)cc1)[C@@H]23
3. COC(=O)CCC[C@@H]1[C@H]2CCCN3CCC[C@@H](CN1C(=O)c1cc4ccc(Cl)cc4n1Cc1ccc(Cl)cc1)[C@@H]23
4. COC(=O)CCC[C@@H]1[C@H]2CCCN3CCC[C@@H](CN1C(=O)c1cc4ccc(Cl)cc4n1Cc1cccc4ccccc14)[C@@H]23
5. COC(=O)CCC[C@@H]1[C@H]2CCCN3CCC[C@@H](CN1C(=O)c1cc4ccc(Cl)cc4n1Cc1ccc(F)c(F)c1)[C@@H]23
6. COC(=O)CCC[C@@H]1[C@H]2CCCN3CCC[C@@H](CN1C(=O)c1cc4ccc(Cl)cc4n1Cc1cccc(C(F)(F)F)c1)[C@@H]23
7. COC(=O)CCC[C@@H]1[C@H]2CCCN3CCC[C@@H](CN1C(=O)c1cc4ccc(Cl)cc4n1Cc1ccc(OC)cc1)[C@@H]23

Marked response:
1: 18.1; 2: 13.7; 3: 13.5; 4: 12.1; 5: 9.55; 6: 4.52; 7: 8.04
